Compiled record: log10 of IC50 values for MAPK1(ERK2) enzyme (Homo sapiens, UniProt P28482) across several sources.
Hi team, quick reminder: these entries are log10 of IC50 (nM).

Answered examples (4):
                        structure_as_smiles  reading
0  O=C(CN1CCc2sc(-c3ccnc(NC4CCOCC4)n3)cc2C1=O)N[C@H](CO)c1cccc(Cl)c1     1.46
1  Cc1cc(-c2nc(C3CCOCC3)cnc2N)ccc1C(=O)N[C@H](CO)c1ccccc1    -0.27
2  CCNC(=O)Nc1ccc2ncc(-c3ccc(N)c(OC)c3)nc2n1     2.77
3  COc1cc(F)cc([C@@H](CO)NC(=O)[C@@H](C)N2CCc3sc(-c4nc(N[C@@H](C)CO)ncc4Cl)cc3C2=O)c1     0.30

response.value for `O=C(N[C@H](CO)c1cccc(Cl)c1)c1nc2cc3c(-c4ccncc4)n[nH]c3cc2[nH]1` (field: log10 of IC50) = -1.00

Lab note: `COc1cc(-c2n[nH]c3cc4[nH]c(C(=O)N[C@H](C)c5ccccc5)nc4cc23)ccn1` gave log10 of IC50 of 0.12

log10 of IC50 in this record for `C[C@H]1Cn2cc(-c3ccnc(Nc4ccnn4C)n3)nc2C(=O)N1Cc1ccc(F)c(F)c1` : 0.26
